# Test system: Toxoplasma gondii
# assay_summary: Antiparasitic activity Toxoplasma gondii RH infected Swiss albino mouse assessed as parasite deformity in host peritoneal exudate at 0.25 mg, po administered 48 hr post-infection measured after 3 days by light microscopic analysis
# Format: functional, organism-based
Activity calls are given as the source filed them. The rule behind the calls is not given here.
Outcome field: choose from label 1 (active), label 0 (inactive)

Prompt: Answer briefly: the call reported for CC(=O)C1=C(C)N=C(SCCC(=O)O)NC1c1cccc(O)c1 (stereo not given) in this assay.
Response: label 1

Prompt: Repeat for the following compound: CCOC(=O)C1=C(C)NC(=S)NC1/C=C\c1ccccc1 (stereo not given)
Response: label 0

Prompt: Do the same for CCOC(=O)C1=C(C)N=C(SCC(=O)c2ccc(Cl)c([N+](=O)[O-])c2)NC1c1ccccc1 (stereo not given) please
Response: label 0

Prompt: Same question for CC(=O)C1=C(C)N=C(SCCC(=O)O)NC1c1ccccc1 (stereo not given) please.
Response: label 1

Prompt: Follow-up item: CCOC(=O)C1=C(C)NC(=S)NC1c1ccccc1 (stereo not given)
Response: label 0

###

# Test system: Toxoplasma gondii
# assay_summary: Antiparasitic activity against Toxoplasma gondii RH infected Swiss albino mouse assessed as decrease in tachozyte count in liver at 0.25 mg, po administered 48 hr post-infection measured after 3 days by Geimsa staining relative to control
# Assay type: functional, organism-based
The source made the active and inactive calls. The calls are words filed in the database; no cut-off is given here.
Return exactly one item of Yes (active), No (inactive)

Prompt: Would you mind telling me which call this test gave CCOC(=O)C1=C(C)N=C(SCCC(=O)O)NC1c1ccccc1OC (stereo unspecified) ?
Response: Yes

Prompt: Then what about the compound CC(=O)C1=C(C)NC(=S)NC1c1cccc(O)c1 (stereo unspecified) ?
Response: No

Prompt: Consider next the compound CCOC(=O)CSC1=NC(c2ccccc2)C(C(=O)OCC)=C(C)N1 (stereo unspecified) in the same way.
Response: No

Prompt: Here is the next compound: CCOC(=O)C1=C(C)N=C(SCC(=O)c2ccc(Cl)c([N+](=O)[O-])c2)NC1c1ccccc1 (stereo unspecified)
Response: No

Prompt: Next record, please: CCOC(=O)C1=C(C)NC(S/C(=C\c2ccc(OC)cc2)C(=O)OCC)=NC1c1ccccc1 (stereo unspecified)
Response: Yes

Prompt: Another compound to check: CCOC(=O)C1=C(C)NC(=S)NC1c1ccccc1OC (stereo unspecified)
Response: No

Prompt: Now try CCOC(=O)CSC1=NC(c2ccccc2OC)C(C(=O)OCC)=C(C)N1 (stereo unspecified) .
Response: No

Prompt: # iterate: CCOC(=O)C1=C(C)NC(=S)NC1c1ccccc1 (stereo unspecified)
Response: No

Prompt: Please do the same for CCOC(=O)C1=C(C)NC(=S)NC1/C=C\c1ccccc1 (stereo unspecified) as well.
Response: No

Prompt: Try the compound CC(=O)C1=C(C)N=C(SCCC(=O)O)NC1c1cccc(O)c1 (stereo unspecified)
Response: Yes

Prompt: Now consider CC(=O)C1=C(C)N=C(SCCC(=O)O)NC1c1ccccc1 (stereo unspecified) and answer again.
Response: Yes

###

# tested_on: Bifunctional dihydrofolate reductase-thymidylate synthase (Cryptosporidium parvum, UniProt Q27552)
# Sequence (Q27552 whole entry): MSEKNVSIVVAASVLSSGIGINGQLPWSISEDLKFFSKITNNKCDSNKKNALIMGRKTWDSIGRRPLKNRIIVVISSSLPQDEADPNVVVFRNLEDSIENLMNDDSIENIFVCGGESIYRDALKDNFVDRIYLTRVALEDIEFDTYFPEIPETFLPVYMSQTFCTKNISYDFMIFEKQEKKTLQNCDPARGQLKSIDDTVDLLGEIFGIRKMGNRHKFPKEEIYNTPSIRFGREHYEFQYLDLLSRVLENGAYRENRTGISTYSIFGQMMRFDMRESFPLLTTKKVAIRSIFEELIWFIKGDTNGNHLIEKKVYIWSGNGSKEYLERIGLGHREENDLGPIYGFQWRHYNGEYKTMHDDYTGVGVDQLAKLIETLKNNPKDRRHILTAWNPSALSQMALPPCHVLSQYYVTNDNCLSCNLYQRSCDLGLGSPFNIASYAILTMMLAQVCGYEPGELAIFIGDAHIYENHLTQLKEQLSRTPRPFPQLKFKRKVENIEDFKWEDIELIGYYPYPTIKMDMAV
# assay_summary: Inhibition of Cryptosporidium parvum recombinant DHFR using dihydrofolate as substrate incubated for 5 min prior to substrate addition by spectrophotometric assay
IC50 vs 2 µM: less than gives Met; not less than gives Not met.

Prompt: Hi there! Is IC50 for CCOC(=O)C1=C(C)NC(=S)NC1c1ccccc1 (stereo unspecified) below 2 µM, do you know?
Response: Not met

Prompt: Ok, now CC(=O)C1=C(C)N=C(SCCC(=O)O)NC1c1ccccc1 (stereo unspecified)
Response: Met

Prompt: How about this molecule: COc1cc(Cc2cnc(N)nc2N)cc(OC)c1OC
Response: Not met

Prompt: Likewise for CCOC(=O)C1=C(C)N=C(SCC(=O)c2ccc(Cl)c([N+](=O)[O-])c2)NC1c1ccccc1 (stereo unspecified) ?
Response: Not met

Prompt: Queued: CCOC(=O)C1=C(C)NC(=S)NC1/C=C\c1ccccc1 (stereo unspecified)
Response: Not met

Prompt: One more molecule: CCOC(=O)C1=C(C)NC(=S)NC1c1ccccc1OC (stereo unspecified)
Response: Not met

###

# Tested on: Toxoplasma gondii
# assay_summary: Antiparasitic activity Toxoplasma gondii RH infected Swiss albino mouse assessed as decrease in interstitial pneumonia at 0.25 mg, po administered 48 hr post-infection measured after 3 days by haematoxylin and eosin staining relative to control
# Assay type: functional, organism-based
Active and inactive are the calls of the source. No cut-off for these calls is given here.
Just give me one of these, please: active, inactive

Prompt: Given CCOC(=O)CSC1=NC(c2ccccc2OC)C(C(=O)OCC)=C(C)N1 (stereo unspecified) , state the outcome it received in this test.
Response: inactive

Prompt: Could you do the same for CC(=O)C1=C(C)N=C(SCCC(=O)O)NC1c1cccc(O)c1 (stereo unspecified) , please?
Response: active

Prompt: Then what about the compound CCOC(=O)C1=C(C)NC(S/C(=C\c2ccc(OC)cc2)C(=O)OCC)=NC1c1ccccc1 (stereo unspecified) ?
Response: active

Prompt: Likewise for CC(=O)C1=C(C)N=C(SCCC(=O)O)NC1c1ccccc1 (stereo unspecified) ?
Response: active

Prompt: Try this compound too: CCOC(=O)C1=C(C)NC(=S)NC1/C=C\c1ccccc1 (stereo unspecified)
Response: inactive

Prompt: Would you kindly repeat that for CCOC(=O)C1=C(C)NC(=S)NC1c1ccccc1 (stereo unspecified) ?
Response: inactive

Prompt: CCOC(=O)C1=C(C)N=C(SCC(=O)c2ccc(Cl)c([N+](=O)[O-])c2)NC1c1ccccc1 (stereo unspecified) , same question.
Response: inactive

Prompt: Queued: CCOC(=O)C1=C(C)NC(=S)NC1c1ccccc1OC (stereo unspecified)
Response: inactive

Prompt: Same lookup for CC(=O)C1=C(C)NC(=S)NC1c1cccc(O)c1 (stereo unspecified) , please.
Response: inactive

Prompt: Also, CCOC(=O)C1=C(C)N=C(SCCC(=O)O)NC1c1ccccc1OC (stereo unspecified) please.
Response: active

Prompt: Record: CCOC(=O)CSC1=NC(c2ccccc2)C(C(=O)OCC)=C(C)N1 (stereo unspecified)
Response: inactive

###

# Tested on: Toxoplasma gondii
# assay_summary: Antiparasitic activity Toxoplasma gondii RH infected Swiss albino mouse assessed as megakaryocytes in host spleen at 0.25 mg, po administered 48 hr post-infection measured after 3 days by haematoxylin and eosin staining relative to control
# Assay type: functional, organism-based
Calls of active or inactive are those of the source. The rule behind the calls is not given here.
Reply using exactly one outcome from true (1) for active, false (0) for inactive

Prompt: Would you mind telling me which call this test gave CC(=O)C1=C(C)N=C(SCCC(=O)O)NC1c1cccc(O)c1 (stereo unspecified) ?
Response: false (0)

Prompt: Record: CCOC(=O)C1=C(C)NC(S/C(=C\c2ccc(OC)cc2)C(=O)OCC)=NC1c1ccccc1 (stereo unspecified)
Response: true (1)

Prompt: Note, next up: CCOC(=O)C1=C(C)N=C(SCC(=O)c2ccc(Cl)c([N+](=O)[O-])c2)NC1c1ccccc1 (stereo unspecified)
Response: false (0)

Prompt: And what about the molecule CCOC(=O)C1=C(C)N=C(SCCC(=O)O)NC1c1ccccc1OC (stereo unspecified) ?
Response: false (0)

Prompt: Queued: CC(=O)C1=C(C)N=C(SCCC(=O)O)NC1c1ccccc1 (stereo unspecified)
Response: false (0)

Prompt: What do you get for CCOC(=O)C1=C(C)NC(=S)NC1c1ccccc1 (stereo unspecified) ?
Response: false (0)

Prompt: // repeat for CCOC(=O)CSC1=NC(c2ccccc2OC)C(C(=O)OCC)=C(C)N1 (stereo unspecified) and report
Response: false (0)

Prompt: Consider next the molecule CCOC(=O)C1=C(C)NC(=S)NC1c1ccccc1OC (stereo unspecified) in the same way.
Response: false (0)

Prompt: Next up: CC(=O)C1=C(C)NC(=S)NC1c1cccc(O)c1 (stereo unspecified)
Response: false (0)

Prompt: Note, next up: CCOC(=O)C1=C(C)NC(=S)NC1/C=C\c1ccccc1 (stereo unspecified)
Response: false (0)

Prompt: Repeat with CCOC(=O)CSC1=NC(c2ccccc2)C(C(=O)OCC)=C(C)N1 (stereo unspecified)
Response: false (0)
